target_or_system: T1, human CDH6 on cells (human, UniProt P55285 54-790)
T1 sequence: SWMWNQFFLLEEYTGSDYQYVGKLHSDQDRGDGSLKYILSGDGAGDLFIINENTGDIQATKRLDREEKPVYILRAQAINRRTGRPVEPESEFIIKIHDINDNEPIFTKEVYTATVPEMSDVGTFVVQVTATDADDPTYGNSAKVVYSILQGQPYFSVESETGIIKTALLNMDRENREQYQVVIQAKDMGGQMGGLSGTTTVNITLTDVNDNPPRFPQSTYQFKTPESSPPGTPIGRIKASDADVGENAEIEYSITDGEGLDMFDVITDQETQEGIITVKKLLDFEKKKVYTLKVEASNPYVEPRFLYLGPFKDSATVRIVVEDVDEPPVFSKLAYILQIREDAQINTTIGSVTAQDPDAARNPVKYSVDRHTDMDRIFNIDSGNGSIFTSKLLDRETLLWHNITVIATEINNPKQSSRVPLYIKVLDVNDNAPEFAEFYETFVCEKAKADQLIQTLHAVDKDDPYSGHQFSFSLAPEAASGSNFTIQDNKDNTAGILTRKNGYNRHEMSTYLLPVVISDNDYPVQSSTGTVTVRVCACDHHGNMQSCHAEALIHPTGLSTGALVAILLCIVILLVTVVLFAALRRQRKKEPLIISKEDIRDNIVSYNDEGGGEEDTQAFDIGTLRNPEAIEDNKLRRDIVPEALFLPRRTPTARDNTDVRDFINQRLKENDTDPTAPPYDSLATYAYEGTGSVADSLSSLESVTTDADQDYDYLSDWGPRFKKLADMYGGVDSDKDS
assay_remarks: cell-based or functional assay
measured_metric: percent inhibition at 1.22 nM ADC, OVCAR3 cells

>  <binder>
NOV0719-SMCC-DM1 (antibody, human IgG1, kappa, V domains shown, SMCC-DM1 on primary amines, sites not stated) VH: QVQLLESGGGLVQPGGSLRLSCAASGFTFSSHWVHWVRQAPGKGLEWVSVISYMGSSTYYADSVKGRFTISRDNSKNTLYLQMNSLRAEDTAVYYCARGSYDMAFDVWGQGTLVTVSS VL: DIQMTQSPSSLSASVGDRVTITCRASQSIVSYLNWYQQKPGKAPKLLIYDASSLQSGVPSRFSGSGSGTDFTLTISSLQPEDFATYYCQQSGSHSITFGQGTKVEIKR

>  <reading>
76%

$$$$
